- Test system: ATP;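 note: ATP exposure 15 min at 22 °C before imaging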
- assay_remarks: switch fluorescence ratio, 500 uM ATP over buffer (Cy3 cluster intensity, sum of 5 cycles each) (fold (ratio)); higher = stronger signal-on switching upon ATP binding; sequences stand for … in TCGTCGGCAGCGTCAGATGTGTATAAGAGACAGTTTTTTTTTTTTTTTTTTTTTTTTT…TC
- reported_conditions: aptamer strand: ATP DNA aptamer (quencher-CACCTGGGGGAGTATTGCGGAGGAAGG + anchor), 100 nM annealed; ATP concentration: 500 uM
assay_endpoint: switch fluorescence ratio
Form rule: numeric answer, no unit written next to it.

Illustrative cases are given below, each with its answer.
CGAACGGATG	1.02
GGGGCGAGTC	1.01
TTTTGAACGT	1.02
ATGCTGGGTA	0.997
ACATGCGCGG	1

I looked up TTATTTGGGA and its switch fluorescence ratio for ATP was 0.991

TAAAAAAGG on ATP gives switch fluorescence ratio = 0.997

// assay ATP, entry TTGGGATTTT , switch fluorescence ratio value = 1.01

Measured switch fluorescence ratio for this entry ATATTTTTAT on ATP: 0.987

Short answer on ATP for GGAATTGTTT , switch fluorescence ratio: 0.974

AGCAGTGACT tested on ATP gave switch fluorescence ratio: 1.13

Known value: ATP switch fluorescence ratio of the sequence TTGGGTCGGC equals 1

Per the reported ATP data, GCGTTCGTGG has switch fluorescence ratio of 1.02

Case CACAATATGT , ATP, switch fluorescence ratio recorded as 1.07

Simply: AATTGTGTTG , ATP, switch fluorescence ratio = 0.98

Summary line: TGGTAAAAAA , ATP, reported switch fluorescence ratio = 0.959

###

- Test system: ATP;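 note: ATP exposure 15 min at 22 °C before imaging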
- assay_remarks: switch fluorescence ratio, 500 uM ATP over buffer (Cy3 cluster intensity, sum of 5 cycles each) (fold (ratio)); higher = stronger signal-on switching upon ATP binding; sequences stand for … in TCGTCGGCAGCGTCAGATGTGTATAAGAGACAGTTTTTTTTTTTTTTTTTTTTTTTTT…TC
- reported_conditions: aptamer strand: ATP DNA aptamer (quencher-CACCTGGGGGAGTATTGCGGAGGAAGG + anchor), 100 nM annealed; ATP concentration: 500 uM
switch fluorescence ratio by entry:

Measured switch fluorescence ratio of GTGGTTGTCG : 0.983

The reported switch fluorescence ratio of the sequence AAGGTAATTT was 1.01

switch fluorescence ratio for TTGATGCCCA is 0.97

For reference, reported switch fluorescence ratio for ATGGCCGATA stands at 0.954

TTTCATGATG yielded switch fluorescence ratio of 0.998

// switch fluorescence ratio lookup, sequence = TTCTGCGTGC , result: 1.85

Just so you know, measured switch fluorescence ratio for TTGGCGTCAA came out at 1.36

For reference, reported switch fluorescence ratio for AAACTTGGCA stands at 1.02

The reported value for CGCGGGGAGC in terms of switch fluorescence ratio is 1.07

For CAGGGGAATG the sequence record lists switch fluorescence ratio as 0.994

###

- Test system: ATP;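 note: ATP exposure 15 min at 22 °C before imaging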
- assay_remarks: switch fluorescence ratio, 500 uM ATP over buffer (Cy3 cluster intensity, sum of 5 cycles each) (fold (ratio)); higher = stronger signal-on switching upon ATP binding; sequences stand for … in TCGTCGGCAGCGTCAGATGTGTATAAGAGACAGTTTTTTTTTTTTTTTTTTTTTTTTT…TC
- reported_conditions: aptamer strand: ATP DNA aptamer (quencher-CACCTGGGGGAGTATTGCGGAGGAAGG + anchor), 100 nM annealed; ATP concentration: 500 uM
assay_endpoint: switch fluorescence ratio
Write no unit; give the number alone.

AGCCTTACGT	1.12
GATGTAGATA	0.978
CATTGGTTGT	0.927
TCGTGTGGGT	1.01
AAGCGAGGTC	1.05

Entry ACCGCTGGTT , switch fluorescence ratio reported as 0.97

Recorded switch fluorescence ratio (sequence ATCGGAAAAA ): 1.02

Reported switch fluorescence ratio ( ACTTATAATA ) = 1.04

// recorded switch fluorescence ratio for CGAGTGAATC : 1.01

Memo: ACCAATCCTG , reported switch fluorescence ratio: 1

The sequence identified as GAATTATGTT registered its switch fluorescence ratio at 1.01

For this sequence ( TAGGCCTCGA ), measured switch fluorescence ratio is 0.985

###

- System: ATP;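 note: ATP exposure 15 min at 22 °C before imaging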
- assay_remarks: switch fluorescence ratio, 500 uM ATP over buffer (Cy3 cluster intensity, sum of 5 cycles each) (fold (ratio)); higher = stronger signal-on switching upon ATP binding; sequences stand for … in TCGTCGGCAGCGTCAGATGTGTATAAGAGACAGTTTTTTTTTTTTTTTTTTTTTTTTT…TC
- reported_conditions: aptamer strand: ATP DNA aptamer (quencher-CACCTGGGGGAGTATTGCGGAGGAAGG + anchor), 100 nM annealed; ATP concentration: 500 uM
assay_endpoint: switch fluorescence ratio

These recorded examples may help you get a feel for the data.
GGTTTTGGGC	1.02
AGGGGGCATG	0.986
TTTTCATAAG	1
TGCTAGAGCT	0.997
GATGATCGGG	1.02

response.value for GTTAGGGTAT (field: switch fluorescence ratio) = 0.998

Sure, the documented switch fluorescence ratio for GGGGTGGGTT is 0.985

Note to self: switch fluorescence ratio recorded for GATTTCATGG was 0.978

Summary for this sequence, GAAGATGCGG : switch fluorescence ratio is 1

The value of switch fluorescence ratio measured for the sequence TTCTCGGGTT turned out to be 0.99

// recorded switch fluorescence ratio for ACACATGTAT : 1

sequence GGAAGGGGTA , switch fluorescence ratio observed: 1.01

###

- System: ATP;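 note: ATP exposure 15 min at 22 °C before imaging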
- assay_remarks: switch fluorescence ratio, 500 uM ATP over buffer (Cy3 cluster intensity, sum of 5 cycles each) (fold (ratio)); higher = stronger signal-on switching upon ATP binding; sequences stand for … in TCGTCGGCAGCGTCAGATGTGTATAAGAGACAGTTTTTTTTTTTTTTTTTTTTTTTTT…TC
- reported_conditions: aptamer strand: ATP DNA aptamer (quencher-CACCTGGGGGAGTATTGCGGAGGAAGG + anchor), 100 nM annealed; ATP concentration: 500 uM
Here the recorded switch fluorescence ratio is given for each entry.
Reply with the value as a number alone.

Some sequences with recorded switch fluorescence ratio:
ATTCATTTTC	1.02
CGTTATTGAG	0.95
ATGTAAGGAG	1.02
GTGCCGGGTT	1.03

Value of switch fluorescence ratio reported for the sequence ATGGCCTTAG is 0.993

Sure, the documented switch fluorescence ratio for ATTTTTGTTT is 0.985

Record ATCTAAACGT . Reported switch fluorescence ratio: 1.06

###

- Tested on: ATP;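 note: ATP exposure 15 min at 22 °C before imaging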
- assay_remarks: switch fluorescence ratio, 500 uM ATP over buffer (Cy3 cluster intensity, sum of 5 cycles each) (fold (ratio)); higher = stronger signal-on switching upon ATP binding; sequences stand for … in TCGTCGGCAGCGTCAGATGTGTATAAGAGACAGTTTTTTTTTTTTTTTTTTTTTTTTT…TC
- reported_conditions: aptamer strand: ATP DNA aptamer (quencher-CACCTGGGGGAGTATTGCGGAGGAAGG + anchor), 100 nM annealed; ATP concentration: 500 uM
# switch fluorescence ratio values compiled below
Reply: number alone, nothing else.

// worked examples, switch fluorescence ratio included
ATCGGGTGGG	1
TTAAAGGCGT	0.982
AGGGTGAGCG	0.997
CGGGGATACG	1.01
TTGGGACGTC	1.02
TGCGGTCACT	0.996
ATTTATTGGT	1.01
GTGTTTAGGG	0.999
GGCCTACCAT	0.998
TAGGGAGAAT	0.992

Note to self: switch fluorescence ratio recorded for TACGTTTTGT was 1.01

Please fill in: switch fluorescence ratio reported for TAAAAATCGT = 0.997

For record AACACAGCTC the listed switch fluorescence ratio is 1.02

switch fluorescence ratio recorded for this sequence, ATCCGGTTCG , is 0.995

###

- System: ATP;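 note: ATP exposure 15 min at 22 °C before imaging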
- assay_remarks: switch fluorescence ratio, 500 uM ATP over buffer (Cy3 cluster intensity, sum of 5 cycles each) (fold (ratio)); higher = stronger signal-on switching upon ATP binding; sequences stand for … in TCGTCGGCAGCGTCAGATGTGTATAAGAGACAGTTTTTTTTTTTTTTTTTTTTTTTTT…TC
- reported_conditions: aptamer strand: ATP DNA aptamer (quencher-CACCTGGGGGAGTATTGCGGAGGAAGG + anchor), 100 nM annealed; ATP concentration: 500 uM
assay_endpoint: switch fluorescence ratio
No unit in the answer, only the number.

Known results for sequences:
ATCGTTTCGT	1.02
TTACGTCATA	1.67
CTGTTATCGA	0.997

Tested on ATP, the item GAATTTCGGG showed switch fluorescence ratio equal to 0.996

Bench note, ATP: entry GGGGAATCAG , its switch fluorescence ratio = 1.03

Per the reported ATP data, GGCCGTAATG has switch fluorescence ratio of 1.09

Query CCATTGTGTG on ATP; switch fluorescence ratio returned: 0.99

Bench note, ATP: AATGGGGGAA , switch fluorescence ratio reads 0.988

Measured switch fluorescence ratio for this entry TGGGCCAGTG on ATP: 1.05

The value of switch fluorescence ratio recorded for ACCTGATGTC when tested on ATP reads 1.06
